procedure.text: Pharmacokinetics after subcutaneous (SC) administration of angiotensin (1-7) in PBS, plasma LC-MS
Format: in vivo, female Sprague-Dawley rats
measurement.context: female, Sprague-Dawley, rat, plasma, sc, 3 mg, SC 0.3 mL of 10 mg/mL A(1-7) in PBS; Mean PK Value (average of individual PK parameters); read-out: Cmax
measured.parameter: Cmax

{"compound": "CC[C@H](C)[C@H](NC(=O)[C@H](Cc1ccc(O)cc1)NC(=O)[C@@H](NC(=O)[C@H](CCCNC(=N)N)NC(=O)[C@@H](N)CC(=O)O)C(C)C)C(=O)N[C@@H](Cc1c[nH]cn1)C(=O)N1CCC[C@H]1C(=O)O [Angiotensin (1-7)]", "recorded.measurement": "17.2 ng/mL"}
